experiment: Solubility Studies in solvents; assay type: physicochemical; conditions: n-butanol, 25 °C, organic solvent or mixture, thermodynamic from solid, n-Butanol, about 25 °C; read-out: Approximate Solubility

- Compound: "CCOc1cc(C(CS(C)(=O)=O)N2C(=O)c3cccc(NC(C)=O)c3C2=O)ccc1OC (single isomer, unassigned; (+)) [Form B]"
  solubility: "< 1000 µg/mL"

###

assay: Solubility Studies in solvents; type: physicochemical; settings: water, 25 °C, water, thermodynamic from solid, Water, about 25 °C; read-out: Approximate Solubility
Attribute measured: solubility

- Molecule: "CCOc1cc(C(CS(C)(=O)=O)N2C(=O)c3cccc(NC(C)=O)c3C2=O)ccc1OC (single isomer, unassigned; (+)) [Form B]"
  Attribute measured: "solubility"
  Result: "< 1000 µg/mL"

###

test: Stability Studies of solid forms; format: physicochemical; settings: 40 °C / 75% RH; 4 weeks

- Compound: "CCOc1cc(C(CS(C)(=O)=O)N2C(=O)c3cccc(NC(C)=O)c3C2=O)ccc1OC (single isomer, unassigned; (+)) [Form B]"
  Appearance: "White solid"
- Compound: "CCOc1cc(C(CS(C)(=O)=O)N2C(=O)c3cccc(NC(C)=O)c3C2=O)ccc1OC (single isomer, unassigned; (+)) [Form A]"
  Appearance: "White solid"
- Compound: "CCOc1cc(C(CS(C)(=O)=O)N2C(=O)c3cccc(NC(C)=O)c3C2=O)ccc1OC (single isomer, unassigned; (+)) [Form D]"
  Appearance: "White solid"

###

assay: Solubility Studies in solvents; format: physicochemical; conditions: tetrahydrofuran, 25 °C, organic solvent or mixture, thermodynamic from solid, Tetrahydrofuran, about 25 °C; read-out: Approximate Solubility
Attribute measured: solubility

- Molecule: "CCOc1cc(C(CS(C)(=O)=O)N2C(=O)c3cccc(NC(C)=O)c3C2=O)ccc1OC (single isomer, unassigned; (+)) [Form B]"
  Result: "> 50 mg/mL"

###

The entries below come with measured pIC50 values attached.
system: LTB4; assay: fMLF-induced LTB4 production in neutrophils; type: cell-based; conditions: Neutrophil; human neutrophils; 1 µM fMLF
pIC50: −log10 of the molar value.
Attribute measured: pIC50

- Compound: "CCOc1cc(C(CS(C)(=O)=O)N2C(=O)c3cccc(NC(C)=O)c3C2=O)ccc1OC (single isomer, unassigned; (+)) [Compound A]"
  Attribute measured: "pIC50"
  Recorded number: 8.61
- Compound: "CCOc1cc(C(CS(C)(=O)=O)N2C(=O)c3cccc(NC(C)=O)c3C2=O)ccc1OC (racemic) [Racemic Compound]"
  Attribute measured: "pIC50"
  Recorded number: 7.70

###

assay: Solubility Studies in solvents; format: physicochemical; conditions: methylene chloride, 25 °C, organic solvent or mixture, thermodynamic from solid, Methylene chloride, about 25 °C; read-out: Approximate Solubility
Attribute measured: solubility

- Molecule: "CCOc1cc(C(CS(C)(=O)=O)N2C(=O)c3cccc(NC(C)=O)c3C2=O)ccc1OC (single isomer, unassigned; (+)) [Form B]"
  Attribute measured: "solubility"
  Result: "> 50 mg/mL"

###

experiment: Solubility Studies in solvents; type: physicochemical; details: n-butyl acetate, 25 °C, organic solvent or mixture, thermodynamic from solid, n-Butyl acetate, about 25 °C; read-out: Approximate Solubility

- Molecule: "CCOc1cc(C(CS(C)(=O)=O)N2C(=O)c3cccc(NC(C)=O)c3C2=O)ccc1OC (single isomer, unassigned; (+)) [Form B]"
  solubility, µg/mL: 9750
